This collection of values is drawn from the supplement of paper PMC11061612.

system: NCI-H727 (Other Solid Carcinomas); assay: Bliss excess, mean over the matrix (fraction); higher = more synergy;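 also: after 72 h of two-drug dosing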
// N strictly below -0.03 in Bliss excess; Y otherwise

Solved entries:
* CCc1c2c(nc3ccc(O)cc13)-c1cc3c(c(=O)n1C2)COC(=O)[C@]3(O)CC [SN-38] + CN(C)CCCOc1ccc(-c2ccc3ncc4c(c3c2)n(C2CCOCC2)c(=O)n4C)cn1 [AZD0156] (first compound max 0.3 µM, 7x7, partner max 1 µM) | Y
* N#Cc1cnc(Nc2cc(NC[C@H]3CNCCO3)c(C(F)(F)F)cn2)cn1 [SRA737] + CCc1c2c(nc3ccc(O)cc13)-c1cc3c(c(=O)n1C2)COC(=O)[C@]3(O)CC [SN-38] (first compound max 10 µM, 7x7, partner max 0.3 µM) | Y
* N#Cc1cnc(Nc2cc(NC[C@H]3CNCCO3)c(C(F)(F)F)cn2)cn1 [SRA737] + Nc1ccn([C@@H]2O[C@H](CO)[C@@H](O)C2(F)F)c(=O)n1 [Gemcitabine] (first compound max 10 µM, 7x7, partner max 0.3 µM) | Y

--- query ---
Does CC1(C)CCC(CN2CCN(c3ccc(C(=O)NS(=O)(=O)c4ccc(NCC5CCOCC5)c([N+](=O)[O-])c4)c(Oc4cnc5[nH]ccc5c4)c3)CC2)=C(c2ccc(Cl)cc2)C1 [Venetoclax] + C[C@@H](Nc1cc(F)cc(F)c1)c1cc(C(=O)N(C)C)cc2c(=O)cc(N3CCOCC3)oc12 [AZD8186] (first compound max 1 µM, 7x7, partner max 3 µM) have a reported Bliss excess of at least -0.03?
N

----------
system: PANC-04-03 (Pancreatic Carcinoma); assay: combination Emax (second highest fraction inhibited in the dose matrix, 72 h); higher = more inhibition; extreme values may be limits of the assay
// 0.0 strictly below 0.5 in combination Emax; 1.0 otherwise

- C[C@@H](Oc1cc(-c2cnn(C3CCNCC3)c2)cnc1N)c1c(Cl)ccc(F)c1Cl [Crizotinib] + CC1=C(C(=CC=C1)Cl)NC(=O)C2=CN=C(S2)NC3=CC(=NC(=N3)C)N4CCN(CC4)CCO [Dasatinib] (first compound max 10 µM, 7x7, partner max 2 µM): 1.0
- COc1cccc(OCCCN)c1-c1cc(Nc2cnc(C#N)cn2)n[nH]1 [Prexasertib] + Cc1cc2ncnn2cc1Nc1ncc2c(n1)n(C1CCOCC1)c(=O)n2C [AZD7648] (first compound max 1 µM, 7x7, partner max 10 µM): 1.0
- CC1(C)CCC(CN2CCN(c3ccc(C(=O)NS(=O)(=O)c4ccc(NCC5CCOCC5)c([N+](=O)[O-])c4)c(Oc4cnc5[nH]ccc5c4)c3)CC2)=C(c2ccc(Cl)cc2)C1 [Venetoclax] + CCN(CCO)CCCOc1ccc2c(Nc3cc(CC(=O)Nc4cccc(F)c4)[nH]n3)ncnc2c1 [AZD2811] (first compound max 1 µM, 7x7, partner max 1 µM): 0.0
- NC1(C(=O)N[C@@H](CCO)c2ccc(Cl)cc2)CCN(c2ncnc3[nH]ccc23)CC1 [Capivasertib] + CC(=O)c1c(C)c2cnc(Nc3ccc(N4CCNCC4)cn3)nc2n(C2CCCC2)c1=O [Palbociclib] (first compound max 10 µM, 7x7, partner max 10 µM): 0.0

Does CC1(C)CCC(CN2CCN(c3ccc(C(=O)NS(=O)(=O)c4ccc(NCC5CCOCC5)c([N+](=O)[O-])c4)c(Oc4cnc5[nH]ccc5c4)c3)CC2)=C(c2ccc(Cl)cc2)C1 [Venetoclax] + C[C@@H](Nc1cc(F)cc(F)c1)c1cc(C(=O)N(C)C)cc2c(=O)cc(N3CCOCC3)oc12 [AZD8186] (first compound max 1 µM, 7x7, partner max 3 µM) have a reported combination Emax of at least 0.5?
0.0

----------
system: KARPAS-299 (T-Cell Non-Hodgkin's Lymphoma); test: combination Emax (second highest fraction inhibited in the dose matrix, 72 h); higher = more inhibition; extreme values may be limits of the assay
readoutKind: combination Emax
Give the value as a plain number.

Answered examples (2):
* CS(=O)(=O)CCNCc1ccc(-c2ccc3ncnc(Nc4ccc(OCc5cccc(F)c5)c(Cl)c4)c3c2)o1 [Lapatinib] + Cn1cnc2c(F)c(Nc3ccc(Br)cc3Cl)c(C(=O)NOCCO)cc21 [Selumetinib] (first compound max 10 µM, 7x7, partner max 10 µM) | 0.446
* Cc1cc2ncnn2cc1Nc1ncc2c(n1)n(C1CCOCC1)c(=O)n2C [AZD7648] + C[C@@H]1COCCN1C2=NC(=NC(=C2)C3(CC3)[S@](=N)(=O)C)C4=C5C=CNC5=NC=C4 [AZD6738] (first compound max 10 µM, 7x7, partner max 10 µM) | 0.927

Which measured combination Emax value corresponds to CCN(CCO)CCCOc1ccc2c(Nc3cc(CC(=O)Nc4cccc(F)c4)[nH]n3)ncnc2c1 [AZD2811] + C[C@@H]1COCCN1C2=NC(=NC(=C2)C3(CC3)[S@](=N)(=O)C)C4=C5C=CNC5=NC=C4 [AZD6738] (first compound max 1 µM, 7x7, partner max 10 µM) ?
0.936

Which measured combination Emax value corresponds to COc1nnc2ccc(N3CCC(c4ccc(OCCN5CCN(C)C(=O)[C@H]5C)cc4)CC3)nn12 [AZD5153] + C[C@@H]1COCCN1C2=NC(=NC(=C2)C3(CC3)[S@](=N)(=O)C)C4=C5C=CNC5=NC=C4 [AZD6738] (first compound max 1 µM, 7x7, partner max 10 µM) ?
0.985

Which measured combination Emax value corresponds to C[C@@H](c1ccc2nccn2c1)n1nnc2ncc(-c3cnn(C)c3)nc21 [Savolitinib] + Cc1c2c(nn1C)CSCc1cc(n(C)n1)CSc1cc(c3ccccc3c1)OCCCc1c(C(=O)O)n(C)c3c-2c(Cl)ccc13 [AZD5991] (first compound max 1 µM, 7x7, partner max 1 µM) ?
0.936

Which measured combination Emax value corresponds to CN(CCO)CC[C@H](CSc1ccccc1)Nc1ccc(S(=O)(=O)NC(=O)c2ccc(N3CCC([C@@H](O)c4ccccc4-c4ccc(Cl)cc4)CC3)cc2)cc1S(=O)(=O)C(F)(F)F [AZD4320] + CN(C)CCCOc1ccc(-c2ccc3ncc4c(c3c2)n(C2CCOCC2)c(=O)n4C)cn1 [AZD0156] (first compound max 1 µM, 7x7, partner max 1 µM) ?
0.13

----------
test system: NCI-H727 (Other Solid Carcinomas); experiment: Bliss excess, mean over the matrix (fraction); higher = more synergy;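 also: after 72 h of two-drug dosing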
// f strictly below -0.05 in Bliss excess; t otherwise

Solved entries:
• CC1(C)CCC(CN2CCN(c3ccc(C(=O)NS(=O)(=O)c4ccc(NCC5CCOCC5)c([N+](=O)[O-])c4)c(Oc4cnc5[nH]ccc5c4)c3)CC2)=C(c2ccc(Cl)cc2)C1 [Venetoclax] + Cn1cnc2c(F)c(Nc3ccc(Br)cc3Cl)c(C(=O)NOCCO)cc21 [Selumetinib] (first compound max 1 µM, 7x7, partner max 3 µM) = f
• COc1cccc(OCCCN)c1-c1cc(Nc2cnc(C#N)cn2)n[nH]1 [Prexasertib] + CN(C)CCCOc1ccc(-c2ccc3ncc4c(c3c2)n(C2CCOCC2)c(=O)n4C)cn1 [AZD0156] (first compound max 1 µM, 7x7, partner max 1 µM) = f
• Cc1c2c(nn1C)CSCc1cc(n(C)n1)CSc1cc(c3ccccc3c1)OCCCc1c(C(=O)O)n(C)c3c-2c(Cl)ccc13 [AZD5991] + CCN(CCO)CCCOc1ccc2c(Nc3cc(CC(=O)Nc4cccc(F)c4)[nH]n3)ncnc2c1 [AZD2811] (first compound max 1 µM, 7x7, partner max 1 µM) = t
• COc1cccc(OCCCN)c1-c1cc(Nc2cnc(C#N)cn2)n[nH]1 [Prexasertib] + O=C(c1cc(Cc2n[nH]c(=O)c3ccccc23)ccc1F)N1CCN(C(=O)C2CC2)CC1 [Olaparib] (first compound max 1 µM, 7x7, partner max 10 µM) = f
• Cc1cc2ncnn2cc1Nc1ncc2c(n1)n(C1CCOCC1)c(=O)n2C [AZD7648] + COc1cc([C@@H]2c3cc4c(cc3[C@@H](O[C@@H]3O[C@@H]5CO[C@@H](C)O[C@H]5[C@H](O)[C@H]3O)[C@H]3COC(=O)[C@H]23)OCO4)cc(OC)c1O [Etoposide] (first compound max 10 µM, 7x7, partner max 10 µM) = t

--- query ---
Does O=C(c1cc(Cc2n[nH]c(=O)c3ccccc23)ccc1F)N1CCN(C(=O)C2CC2)CC1 [Olaparib] + Cc1c2c(nn1C)CSCc1cc(n(C)n1)CSc1cc(c3ccccc3c1)OCCCc1c(C(=O)O)n(C)c3c-2c(Cl)ccc13 [AZD5991] (first compound max 10 µM, 7x7, partner max 1 µM) have a reported Bliss excess of at least -0.05?
t

----------
system: NCI-H727 (Other Solid Carcinomas); assay: Bliss excess, mean over the matrix (fraction); higher = more synergy;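 also: after 72 h of two-drug dosing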
readoutKind: Bliss excess

Answered examples (2):
* Cc1c2c(nn1C)CSCc1cc(n(C)n1)CSc1cc(c3ccccc3c1)OCCCc1c(C(=O)O)n(C)c3c-2c(Cl)ccc13 [AZD5991] + CN(C)CCCOc1ccc(-c2ccc3ncc4c(c3c2)n(C2CCOCC2)c(=O)n4C)cn1 [AZD0156] (first compound max 1 µM, 7x7, partner max 1 µM) | 0.043
* Cn1cnc2c(F)c(Nc3ccc(Br)cc3Cl)c(C(=O)NOCCO)cc21 [Selumetinib] + C=CCn1c(=O)c2cnc(Nc3ccc(N4CCN(C)CC4)cc3)nc2n1-c1cccc(C(C)(C)O)n1 [AZD1775] (first compound max 10 µM, partner max 1 µM) | -0.0891

Moving on to another molecule below.
Which measured Bliss excess value corresponds to C[C@@H]1COCCN1c1cc(C2([S@](C)(=N)=O)CC2)nc(-c2ccnc3[nH]ccc23)n1 [AZD6738] + O=C(c1cc(Cc2n[nH]c(=O)c3ccccc23)ccc1F)N1CCN(C(=O)C2CC2)CC1 [Olaparib] (first compound max 10 µM, 7x7, partner max 10 µM) ?
-0.0317
